- System: 324938-238-R-J1-PDC complex spheroids viability;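 also: viability read after seven days of drug exposure; 100% = DMSO vehicle control wells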
- ASSAY: Anticancer human tumor 324938-238-R-J1-PDC patient-derived bladder carcinoma cell line growth inhibition [CLK]
- CONDITIONS USED: second compound 0.316 µM; first compound 0.0949 µM; hits give low values
Some compounds, each annotated with its measured viability, T/C.
Provide the reading as a plain figure in %.

// known answers, use as guide
compound="NC(=O)C(=Cn1cnc(-c2cc(C(F)(F)F)cc(C(F)(F)F)c2)n1)c1cncnc1 + CN1CCN(c2cc(C(=O)Nc3cc4cc(-c5cnn(C)c5)ccc4cn3)ccn2)CC1" numeric_value=11.1
compound="CC(C)CC(NC(=O)C(Cc1ccccc1)NC(=O)c1cnccn1)B(O)O (stereo not drawn) + CN1CCN(c2cc(C(=O)Nc3cc4cc(-c5cnn(C)c5)ccc4cn3)ccn2)CC1" numeric_value=0.15

Okay, next one:
q: Record lookup: for 324938-238-R-J1-PDC complex spheroids viability, what viability, T/C belongs to C=CC(=O)Nc1cc(Nc2nccc(-c3cn(C)c4ccccc34)n2)c(OC)cc1N(C)CCN(C)C + CNC(=O)c1ccc(Nc2nc(OC3CCCC3)c3c(-c4ccc5nc(C)oc5c4)c[nH]c3n2)c(OC)c1 ?
a: 13.4
